Give enrichment ratio for every item shown.
B1: PhoQ; a variant is named by its letters at X, in order, P23837 (parent)
chain: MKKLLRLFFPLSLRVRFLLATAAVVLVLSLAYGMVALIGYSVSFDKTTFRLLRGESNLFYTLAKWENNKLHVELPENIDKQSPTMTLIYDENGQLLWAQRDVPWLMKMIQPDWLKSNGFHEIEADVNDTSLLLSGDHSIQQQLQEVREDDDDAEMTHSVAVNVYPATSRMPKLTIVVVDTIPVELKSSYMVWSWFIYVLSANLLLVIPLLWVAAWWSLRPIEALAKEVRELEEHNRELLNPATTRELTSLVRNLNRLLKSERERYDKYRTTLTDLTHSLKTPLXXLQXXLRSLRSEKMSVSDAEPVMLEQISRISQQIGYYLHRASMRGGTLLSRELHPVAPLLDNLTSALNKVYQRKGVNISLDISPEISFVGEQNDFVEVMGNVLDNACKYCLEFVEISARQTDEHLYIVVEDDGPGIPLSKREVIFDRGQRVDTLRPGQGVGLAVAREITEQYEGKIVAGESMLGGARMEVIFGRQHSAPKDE

variants of: B1; assay: enrichment ratio after two sorts for PhoP signalling (ratio (wild type AVST 3.29)); higher = more functional; conditions: with PhoP (E. coli)
The full ranking holds about 140,000 sequences; the median of “enrichment ratio after two sorts for PhoP signalling” is about 0, and the highest 2% start at about 11. Only a selection was taken, and the highest values are over-represented in it overall.
Numbers only.

ACPI    9.4

Each variant below has a recorded value; state its enrichment ratio.
1. SGWI
2. AEFA
3. SGVG

[2.76, 0.58, 5.22]

For each listed entry, give its enrichment ratio.
1. AEFS
2. ACIL
3. AHCL
4. AELY
5. QCGH
6. AELW
7. AELK

19
10.3
9.7
9.13
24.2
11.4
11.5

Please go through the list and note enrichment ratio for each variant.
1. ANLT
2. SGQH
3. AKML
4. THML

[4.56, 11.9, 9.72, 12.8]

Would you mind listing enrichment ratio for each of the following variants?
1. ITEG
2. SGVS
3. TFTG
4. TFAG

0.328
13
13.3
2.03
